# measured.target: bovine pancreatic trypsin (Bos taurus, UniProt P00760)
# Sequence (P00760 24-246): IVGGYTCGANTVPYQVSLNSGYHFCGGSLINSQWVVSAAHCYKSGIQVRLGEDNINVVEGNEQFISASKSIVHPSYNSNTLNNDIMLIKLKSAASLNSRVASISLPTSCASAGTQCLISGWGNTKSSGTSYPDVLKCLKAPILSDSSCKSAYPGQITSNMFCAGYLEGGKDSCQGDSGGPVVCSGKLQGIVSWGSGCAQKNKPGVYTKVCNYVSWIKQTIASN
# assay.text: KI against trypsin with substrate S-2444
# Format: biochemical
# settings: read-out: K1, Trypsin
pKi: −log10 of the molar value. Ada = not defined here

# substance, measured.target, pKi
records = [
    ("Ada-Phe-Arg-Ser-Val-Gln-NH2 (Ada-FRSVQ-NH2; reading uncertain; also: printed as Ada-Phe-Arg-Ser-Val-Gln-NH2) [KKI-8]", "bovine pancreatic trypsin (Bos taurus, UniProt P00760)", 4.14),
]
